assay.target: HER2 intracellular domain (Homo sapiens, UniProt P04626)
Construct: made in house; host or cells: SF-21 insect cells infected with recombinant baculovirus BAC-HER2 (pFASTBAC1)
Sequence (P04626 676-1255 limits assumed): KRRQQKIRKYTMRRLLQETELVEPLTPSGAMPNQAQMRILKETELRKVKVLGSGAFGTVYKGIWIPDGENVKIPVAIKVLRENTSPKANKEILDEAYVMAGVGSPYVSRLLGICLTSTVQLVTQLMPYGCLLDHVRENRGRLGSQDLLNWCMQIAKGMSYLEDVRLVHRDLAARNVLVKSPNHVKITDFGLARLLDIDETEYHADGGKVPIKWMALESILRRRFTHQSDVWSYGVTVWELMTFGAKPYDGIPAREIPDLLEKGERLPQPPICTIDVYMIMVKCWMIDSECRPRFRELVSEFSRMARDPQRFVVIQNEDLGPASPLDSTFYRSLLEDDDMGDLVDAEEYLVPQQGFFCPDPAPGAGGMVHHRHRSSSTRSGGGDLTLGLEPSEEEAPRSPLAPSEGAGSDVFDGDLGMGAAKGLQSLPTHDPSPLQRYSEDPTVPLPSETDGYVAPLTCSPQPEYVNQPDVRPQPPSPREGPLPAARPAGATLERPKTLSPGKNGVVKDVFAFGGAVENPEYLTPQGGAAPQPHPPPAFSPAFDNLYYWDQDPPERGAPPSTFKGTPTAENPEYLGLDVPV
run.description: Determination of HER2 kinase inhibitory activity
Assay type: biochemical
conditions.used: test compound at 1.0 μM, poly-Glu:Tyr (4:1) substrate, [γ-32P]ATP, 25° C. 10 min, read-out: Inhibitory rate (%) at 1.0 μM
Description: Human HER2 gene was cloned by RT-PCR using total RNA prepared from MCF7 cells as a template. The primer used for RT-PCR was prepared from nucleotide sequence (Genbank Accession No. M11730) information of HER2 gene by adding a nucleotide sequence encoding DYKDDDD peptide and a restriction enzyme recognition sequence to a nucleotide sequence (2176-3918 of Genbank Accession No. M11730) encoding the HER2 intracellular domain region, so that the protein contains an N-terminal DYKDDDD peptide tag. […]
measurement.type: inhibition at 1 µM (%)
Numeric answer only, unit % assumed.

Please review the following examples before continuing.
>>> print(df.to_string())
                                   compound  endpoint_value
0  CC(C)(C)CC(=O)c1cccc(Oc2ccc(Nc3ncnc4ccn(CCO)c34)cc2Cl)c1 [Example E-22]              99
1  CC(C)(C)NC(=O)Cc1cccc(Oc2ccc(Nc3ncnc4ccn(CCO)c34)cc2Cl)c1 [Example C-89]             100
2  CC(C)(C)NC(=O)c1cccc(Oc2ccc(Nc3ncnc4ccn(CCO)c34)cc2Cl)c1 [Example C-26]              98

Tell me its inhibition at 1 µM given CC(C)(C)NC(=O)c1cccc(Cn2ncc3cc(Nc4ncnc5ccn(CCO)c45)ccc32)c1 [Example G-14] as the entry.
100

Please report inhibition at 1 µM for the following compound: OCCOCCn1ccc2ncnc(Nc3cnc(Oc4cccc(C(F)(F)F)c4)c(Cl)c3)c21 [Example B-1]
99

For the compound CC(C)(O)CC(=O)NCCn1ccc2ncnc(Nc3ccc4c(cnn4Cc4cccc(F)c4)c3)c21 [Example G-5] , give its reported inhibition at 1 µM.
93

// Input: CC(C)(C(=O)NCCn1ccc2ncnc(Nc3ccc(Oc4cccc(Cl)c4)c(Cl)c3)c21)S(C)(=O)=O [Example A-1] . Output its inhibition at 1 µM only.
98

Please report inhibition at 1 µM for the following compound: O=C(Nc1cccc(Oc2ccc(Nc3ncnc4ccn(CCOCCO)c34)cc2Cl)c1)C1CC1 [Example C-45]
97
